- Tested System: T1, hMPV PostF trimer (human metapneumovirus, strain B2)
- T1 construct: also called MPV PostF (dPFv1)
- Procedure Text: BLI, mAb on anti-human Fc sensor
Parameter: Octet binding response (nm)

{"Binder": "M2E04 (antibody, V domains shown, IgG) VH: QVQLQESGPGLVKPSEILSLTCTVSRFSINSGYYWGWIRQPPGKGLEWIGCISHAGSIYSNPSLESRVTLSLDTSKNQFSLKLTSVIAADTATYYCAASSNWHNALEYWGQGTLVVVSS VL: QSVLTQPPSASGTPGQTVTISCSGSRSNMGINWVYWYQQLPGTAPKLVIYRNSQRPSGVPDRFSGSQSGTSASLAISGLRSEDEAVYYCAVWDDSLDGRLFGGGTKLTVL", "Parameter": "Octet binding response", "Observed Result": 0.0702}
{"Binder": "M3C06 (antibody, V domains shown, IgG) VH: QVQLVQSGAEVKKPGSSVKVSCKAYGGTLSNYAISWVRQAPGQGLHWMGRIIPVMNVANYADNFQGRVTITADKSTSTAYMELSSLRSEDAAIYYCATARGLGSLEGGDAFDVWGQGTMLTVSS VL: DIVMTQSPDSVAVSLGERATISCKSSLSLLYSSNNKNYLVWYQQKPGQPPKLLFYWASTRESGVPDRFSASGSGTDFTLTISSLQAEDVAVYYCQQYYSTPITFGQGTRLEIR", "Parameter": "Octet binding response", "Observed Result": -0.0338}
{"Binder": "M4B11 (antibody, V domains shown, IgG) VH: QVQLVQSGTEVQTPGASVKVSCKTSGYIFTGYFMHWVRQAPGQGFEWMGWVNPYSGATTYAQKFQGRVTMTRDTSISTVYMELSRLTSDDTAIYYCAKDTSNSGPDLLEHWGQGTLVIVSS VL: EIVLTQSPATLSLSPGERATLSCRASQSISNFLVWYQRKPGQAPRLLIFDVSKRATGIPTRFSGSGSGTDFTLTISSLEPEDFAVYYCQQRSNWPPGYTFGQGTKLEIK", "Parameter": "Octet binding response", "Observed Result": 0.426}
